- protocol.details: Distribution coefficient, logD of compound at pH 7.4 by shake flask method based LC-MS/MS analysis
- Type: physicochemical
- applied.conditions: octanol/water, read-out: logD
Assign 1 to entries whose logD meets or exceeds 4; assign 0 to the rest.

Q: Hi, just wondering whether O=C(Nc1ccc(Br)cc1)NC1CCN(c2ccccc2)C1=O (stereo not given) shows logD of 4 or higher.
A: 1

Q: How about N#Cc1ccc(NC(=O)NC2CCN(c3ccccc3F)C2=O)cc1 (stereo not given) ?
A: 0

Q: Also need Cc1nn(-c2ccccc2)c(C)c1N1CCC(NC(=O)Nc2ccc(Br)cc2)C1=O (stereo not given) , thanks.
A: 1

Q: Now try CC(NC(=O)NC1CCN(c2ccccc2)C1=O)c1ccncc1 (stereo not given) .
A: 0

Q: Request: Cc1nn(C)cc1N1CCC(NC(=O)Nc2ccc(Br)cc2)C1=O (stereo not given)
A: 0

Q: Lookup O=C(Nc1ccc(Br)cc1)NC1CCN(Cc2ccccc2)C1=O (stereo not given)
A: 1

Q: Another molecule to look at: CC(C)(C)OC(=O)N1CC(N2CCC(NC(=O)Nc3ccc(Br)cc3)C2=O)C1 (stereo not given)
A: 1

Q: Can you handle O=C(Nc1ccc(Br)cc1)NC1CCN(c2cnn(-c3ccccc3)c2)C1=O (stereo not given) next?
A: 1

Q: Repeat for the following molecule: O=C(Nc1ccc(Br)cc1)NC1CCN(C2CCN(Cc3ccccc3)CC2)C1=O (stereo not given)
A: 0

====

- protocol.details: AUC (0 to t) in C57BL6 mouse at 10 mg/kg, ip
- Type: ADME, organism-based
- Design: dose 10 mg/kg
- applied.conditions: in vivo
test.readout: AUC(0-t)
For clarity, give the value followed by its unit.

Q: Can you look up the measured AUC(0-t) of O=C(Nc1ccc(Br)cc1)NC1CCN(c2ccccc2)C1=O (stereo unspecified) for me?
A: 28600 ng·h/mL

====

- protocol.details: Distribution coefficient, logD of compound at pH 7.4 by shake flask method based LC-MS/MS analysis
- Assay type: physicochemical
- applied.conditions: octanol/water, read-out: logD
Please go through the items and note down their logD.

Q: Which logD is listed for O=C(Nc1ccc(Br)cc1)NC1CCN(C2CCNCC2)C1=O (stereo not given) ?
A: 0.3

Q: Now the molecule O=C(Nc1ccc(Br)cc1)NC1CCN(C2CCN(c3ncccn3)CC2)C1=O (stereo not given)
A: 3.9

Q: Repeat with CC1CC(NC(=O)NCc2nccn2C)C(=O)N1c1ccccc1 (stereo not given)
A: 1

Q: O=C(Nc1ccc(Br)cc1)NC1CCN(CC2CCNCC2)C1=O (stereo not given) , same question.
A: 0.8

Q: // query: Cn1cc(N2CCC(NC(=O)NCc3cc(F)cc(F)c3)C2=O)cn1 (stereo not given)
A: 2.1

Q: Here is the next molecule: CC(C)(C)OC(=O)N1CCC(CN2CCC(NC(=O)Nc3ccc(Br)cc3)C2=O)CC1 (stereo not given)
A: > 4

Q: Field entry: O=C(Nc1ccc(Br)cc1)NC1CCN(C2CCN(Cc3ccccc3)C2)C1=O (stereo in doubt; 18)
A: 3

Q: Same read-out for O=C(Nc1ccc(Br)cc1)NC1CCN(CC2CCN(Cc3ccccc3)CC2)C1=O (stereo not given) ?
A: 2.5

Q: Query CC(NC(=O)NC1CC(C)N(c2ccccc2)C1=O)c1ccncc1 (stereo not given) next
A: 2.8

Q: Query O=C(Nc1ccc(Br)cc1)NC1CCN(c2cnn(-c3ccncc3)c2)C1=O (stereo not given) next
A: 4.3

====

- assayed.system: UniProt P21462
- Sequence (P21462 whole entry): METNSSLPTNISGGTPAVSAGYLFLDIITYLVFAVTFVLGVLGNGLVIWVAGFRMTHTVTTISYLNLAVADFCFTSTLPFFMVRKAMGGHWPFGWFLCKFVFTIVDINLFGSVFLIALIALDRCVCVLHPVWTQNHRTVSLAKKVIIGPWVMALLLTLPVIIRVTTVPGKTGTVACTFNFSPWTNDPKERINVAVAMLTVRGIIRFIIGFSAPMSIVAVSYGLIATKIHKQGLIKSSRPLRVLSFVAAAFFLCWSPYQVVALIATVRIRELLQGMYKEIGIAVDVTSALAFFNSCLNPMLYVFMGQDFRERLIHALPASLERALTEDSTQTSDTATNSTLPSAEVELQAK
- protocol.details: Agonist activity at human FPR1 expressed in HEK293-A cells assessed as ERK phosphorylation level incubated for 5 mins by ELISA assay
- Assay type: functional, cell-based
- applied.conditions: read-out: EC50
test.readout: EC50 (nM)
# output: bare number, implied unit nM

Q: GET /values?readout=EC50&item= O=C(Nc1ccc(Br)cc1)NC1CCN(c2ccccc2)C1=O (stereo unspecified)
A: 1740

====

- protocol.details: Microsomal stability in mouse liver microsomes assessed as half life at 1 uM preincubated for 5 mins followed by NADPH regenerating system addition measured after 30 mins by LC-MS/MS analysis
- Assay type: ADME, Microsome
- applied.conditions: t1/2, time 35 min
Give log10 of half-life at 1 µM for every item shown.
Log scale reminder: half-life at 1 µM in h, then log10 taken.

Q: Quick one: log10 of half-life at 1 µM for COc1ccc(CNC(=O)NC2CCN(c3ccccc3)C2=O)cc1 (centres undefined) ?
A: 0.77

Q: Cool, now O=C(Nc1ccc(Br)cc1)NC1CCN(CC2CCNCC2)C1=O (centres undefined)
A: 0.37

Q: Param item: Cc1nn(C)cc1N1CCC(NC(=O)Nc2ccc(Br)cc2)C1=O (centres undefined)
A: 0.46

Q: Now the same for CC(C)(C)OC(=O)N1CCC[C@H](N2CCC(NC(=O)Nc3ccc(Br)cc3)C2=O)C1 (stereo in doubt; 20)
A: -0.30

Q: How about CC(C)(C)OC(=O)N1CC(N2CCC(NC(=O)Nc3ccc(Br)cc3)C2=O)C1 (centres undefined) ?
A: 0.27

Q: Also N#Cc1ccc(NC(=O)NC2CCN(c3ccccc3F)C2=O)cc1 (centres undefined) ?
A: 0.46

Q: Also check CC(C)n1cc(N2CCC(NC(=O)Nc3ccc(Br)cc3)C2=O)cn1 (centres undefined)
A: 0.42

Q: What about this molecule? O=C(Nc1ccc(Br)cc1)NC1CCN(Cc2ccccc2)C1=O (centres undefined)
A: 0.33

Q: Thanks! And O=C(Nc1ccc(Br)cc1)NC1CCN(C2CCN(c3ncccn3)CC2)C1=O (centres undefined) ?
A: -0.13

Q: // repeat for CC(NC(=O)NC1CC(C)N(c2ccccc2)C1=O)c1ccncc1 (centres undefined) and report
A: 0.40

Q: Continue with O=C(Nc1ccc(Br)cc1)NC1CCN(c2cnn(-c3ccccc3)c2)C1=O (centres undefined)
A: 0.25

Q: Same for O=C(Nc1ccc(Br)cc1)NC1CCN(C2CCN(Cc3ccccc3)CC2)C1=O (centres undefined)
A: 0.07

Q: What about O=C(Nc1ccc(Br)cc1)NC1CCN(CC2CCN(Cc3ccccc3)CC2)C1=O (centres undefined) ?
A: 0.31

Q: Try this molecule too: O=C(Nc1ccc(Br)cc1)NC1CCN(c2ccc(F)cc2)C1=O (centres undefined)
A: -0.26

Q: Same read-out for CC(C)(C)OC(=O)N1CCC(N2CCC(NC(=O)Nc3ccc(Br)cc3)C2=O)CC1 (centres undefined) ?
A: -0.28

Q: Entry to check: O=C(Nc1ccc(Br)cc1)NC1CCN(C2CCN(Cc3ccccc3)C2)C1=O (stereo in doubt; 18)
A: -0.22

Q: Then this molecule: CC(C)(C)OC(=O)N1CCC(CN2CCC(NC(=O)Nc3ccc(Br)cc3)C2=O)CC1 (centres undefined)
A: -0.50

Q: Cool, now Cc1nn(-c2ccccc2)c(C)c1N1CCC(NC(=O)Nc2ccc(Br)cc2)C1=O (centres undefined)
A: -0.20

====

Exercise: for every item that follows, state its recorded Emax.
- assayed.system: UniProt:P25090
- Sequence (P25090 whole entry): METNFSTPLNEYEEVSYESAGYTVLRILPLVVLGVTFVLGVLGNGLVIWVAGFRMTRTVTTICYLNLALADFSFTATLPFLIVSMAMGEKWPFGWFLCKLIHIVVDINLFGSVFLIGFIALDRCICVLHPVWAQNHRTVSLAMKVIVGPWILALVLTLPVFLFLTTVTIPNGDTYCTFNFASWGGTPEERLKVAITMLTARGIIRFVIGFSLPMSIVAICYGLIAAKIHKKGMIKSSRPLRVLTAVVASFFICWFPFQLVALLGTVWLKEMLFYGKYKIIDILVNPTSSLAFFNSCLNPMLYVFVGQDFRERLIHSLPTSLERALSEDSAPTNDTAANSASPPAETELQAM
- protocol.details: Agonist activity at FPRL1 (unknown origin) expressed in CHO-K1 cells assessed as increase in calcium mobilization […] incubated for 2.5 hrs by cellular based FLIPR assay
- Type: functional, cell-based
- applied.conditions: filed as agonist, time 0.067 hrs, in the assay text read “measured for 240 s” for “incubated for 2.5 hrs”
Return type: number; implicit unit %.

Q: Look up Emax: O=C(Nc1ccc(Br)cc1)NC1CCN(C2CCNCC2)C1=O (centres undefined)
A: 68

Q: Entry O=C(Nc1ccc(Br)cc1)NC1CCN(C2CCN(Cc3ccccc3)C2)C1=O (stereo in doubt; 18) please
A: 84

Q: Do the same for O=C(Nc1ccc(Br)cc1)NC1CCN(c2ccccc2)C1=O (centres undefined) please
A: 73

Q: Then this compound: CC(C)(C)OC(=O)N1CCC[C@H](N2CCC(NC(=O)Nc3ccc(Br)cc3)C2=O)C1 (stereo in doubt; 20)
A: 73

Q: Likewise for Cc1nn(-c2ccccc2)c(C)c1N1CCC(NC(=O)Nc2ccc(Br)cc2)C1=O (centres undefined) ?
A: 150

Q: Field entry: O=C(Nc1ccc(Br)cc1)NC1CCN(C2CCN(Cc3ccccc3)CC2)C1=O (centres undefined)
A: 76

Q: Query O=C(Nc1ccc(Br)cc1)NC1CCN(C2CCN(Cc3ccccc3)C2)C1=O (stereo in doubt; 17) next
A: 128

Q: Now this one: O=C(Nc1ccc(Br)cc1)NC1CCN(CC2CCNCC2)C1=O (centres undefined)
A: 84

Q: Subsequent entry: CC(C)(C)OC(=O)N1CC(N2CCC(NC(=O)Nc3ccc(Br)cc3)C2=O)C1 (centres undefined)
A: 67

Q: Field entry: N#Cc1ccc(NC(=O)NC2CCN(c3ccccc3F)C2=O)cc1 (centres undefined)
A: 123

Q: And then CC(C)(C)OC(=O)N1CCC(CN2CCC(NC(=O)Nc3ccc(Br)cc3)C2=O)CC1 (centres undefined) , what is it?
A: 86

Q: Item: O=C(Nc1ccc(Br)cc1)NC1CCN(CC2CCN(Cc3ccccc3)CC2)C1=O (centres undefined)
A: 99

Q: Please do the same for CC(C)(C)OC(=O)N1CCC(N2CCC(NC(=O)Nc3ccc(Br)cc3)C2=O)CC1 (centres undefined) as well.
A: 42

Q: Same thing, different compound: CC(C)(C)OC(=O)N1CCC[C@H](N2CCC(NC(=O)Nc3ccc(Br)cc3)C2=O)C1 (stereo in doubt; 19)
A: 71
